Quick reference for pIC50 among some compounds
ASSAY_TEXT: Inhibition of Heliothis virescens SERCA expressed in Sf9 cells assessed as ATP depletion measured after 60 mins by luciferin/luciferase coupled reporter gene assay
pIC50: −log10 of the molar value.
RESULT_TYPE: pIC50

COMPOUND: CC(O)=C1C(=O)C2Cc3ccccc3C(C)(C)N2C1=O (mixture of isomers)
RELATION_OPERATOR: =
NUMERIC_READOUT: 5.20
--
COMPOUND: COC(=O)[C@H]1NC(C)(C)[C@@H]2Cc3cccc4[nH]cc(c34)[C@H]12
RELATION_OPERATOR: <
NUMERIC_READOUT: 4.30
--
COMPOUND: CC(=O)C1=C(O)[C@@H]2[C@H]3c4c[nH]c5cccc(c45)C[C@H]3C(C)(C)N2C1=O
RELATION_OPERATOR: =
NUMERIC_READOUT: 8.00
--
COMPOUND: C/C(O)=C1\C(=O)[C@@H]2[C@H]3c4c[nH]c5cccc(c45)C[C@@H]3C(C)(C)N2C1=O
RELATION_OPERATOR: =
NUMERIC_READOUT: 5.30
